# experiment: in vitro
# Assay type: cell-based, human
# conditions: human, erythrocytes, CPZ 0.40 mg/ml (Example 4)
metricName: hemolysis at 0.25 h (%)
Express it in %; write the number only.

## Input Which hemolysis at 0.25 h value is on record for `CN(C)CCCN1c2ccccc2Sc2ccc(Cl)cc21` ?
## Output 96

====

# experiment: solubility limit
# Type: physicochemical
# conditions: 20° C.
metricName: solubility

## Input Which solubility value is on record for `OC[C@H]1O[C@@H]2O[C@H]3[C@H](O)[C@@H](O)[C@@H](O[C@H]4[C@H](O)[C@@H](O)[C@@H](O[C@H]5[C@H](O)[C@@H](O)[C@@H](O[C@H]6[C@H](O)[C@@H](O)[C@@H](O[C@H]7[C@H](O)[C@@H](O)[C@@H](O[C@H]8[C@H](O)[C@@H](O)[C@@H](O[C@H]1[C@H](O)[C@H]2O)O[C@@H]8CO)O[C@@H]7CO)O[C@@H]6CO)O[C@@H]5CO)O[C@@H]4CO)O[C@@H]3CO` ?
## Output 13 to 18 mg/mL

====

# experiment: in vitro
# Assay type: cell-based, human
# conditions: human, erythrocytes, CPZ 0.25 mg/ml (Example 2)
metricName: hemolysis at 0.25 h

## Input Which hemolysis at 0.25 h value is on record for CN(C)CCCN1c2ccccc2Sc2ccc(Cl)cc21 [CPZ, chloropromazine] ?
## Output 7%

====

# experiment: in vitro
# Type: cell-based, human
# conditions: human, erythrocytes, CPZ 0.15 mg/ml (Example 1)
metricName: hemolysis at 0.25 h (%)
Express it in %; write the number only.

## Input Which hemolysis at 0.25 h value is on record for `CN(C)CCCN1c2ccccc2Sc2ccc(Cl)cc21` ?
## Output 4.9
